Where a name gives a salt, the structure may show the parent alone.
Metric: melting point

# input Tell me measured melting point for O=C(NC(c1cccc(C(F)(F)F)c1)C12CCCC(CN1)C2)c1nccc(C(F)(F)F)c1Cl (racemic) (as salt: HCl) [Compound 11] please.
# output 250.4 to 251.4 °C

# input Dear colleague, please send me the reported melting point for O=C(NC(c1ccccc1)C12CCCC(CN1)C2)c1nccc(C(F)(F)F)c1Cl (racemic) (as salt: HCl) [Compound 3] when you can.
# output 158 to 160 °C

# input Indicate the recorded melting point value for this compound: Cn1cnc(C(=O)NC(c2ccccc2)C23CCCC(CN2)C3)c1 (racemic) [Compound 7]
# output 150 to 152 °C

# input Specify melting point for O=C(NC(c1ccccc1)C12CCCC(CN1)C2)c1cc(Cl)sc1Cl (racemic) [Compound 1] and stop.
# output 95 to 97 °C

# input Respond only with melting point recorded for CSc1ncccc1C(=O)NC(c1ccc(F)cc1)C12CCCC(CN1)C2 (racemic) (as salt: HCl) [Compound 8]
# output 234 to 236 °C

# input Consider the compound CSc1ncccc1C(=O)NC(c1cccc(C)c1)C12CCCC(CN1)C2 (racemic) (as salt: HCl) [Compound 10] and give its recorded melting point.
# output 205 to 207 °C
